koff listing for selected binders.
Target: T1, mouse programmed cell death protein 1 Fc fusion protein (mPD-1-Fc), mPD-1 C60S (aa 25-167) (Mus musculus, UniProt Q02242, stabilised)
T1 construct: not cleaved; source: Expi293F, purified (Protein A, SEC; dimeric fraction); not shown: Fc (human), C-terminal, kept
Test: SPR; Carterra LSA; Fab from the ammonium sulfate precipitate of the culture supernatant immobilised on a NiHC200M chip; hPD-1 (1-1024 nM) or mPD-1-Fc (4-1024 nM) as analyte, fourfold dilution series, no regeneration; HBS-EP pH 7.4, 25 °C; medians over the spots of a construct, KD = koff/kon
Conditions: one partner purified
Write the number in s⁻¹ without appending the unit.

// worked examples, koff included
binder="toripalimab Fab L.V99S (Fab, V domains shown, as the heavy chain of Sm3; light chain of Sm3 with this change; numbers count from the chain's first residue; source: Brevibacillus, culture supernatant (ammonium sulfate precipitate); not shown: 6xHis, C-terminal, kept; 6xHN, C-terminal, kept) VH: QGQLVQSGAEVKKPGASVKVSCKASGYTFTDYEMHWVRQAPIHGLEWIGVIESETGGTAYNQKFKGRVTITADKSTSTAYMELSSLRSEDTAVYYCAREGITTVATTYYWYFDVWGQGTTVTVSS VL: DVVMTQSPLSLPVTLGQPASISCRSSQSIVHSNGNTYLEWYLQKPGQSPQLLIYKVSNRFSGVPDRFSGSGSGTDFTLKISRVEAEDVGVYYCFQGSHSPLTFGQGTKLEIK" unit_abbreviation=s⁻¹ observed_measurement=6.95e-05
binder="toripalimab Fab L.R24Y (Fab, V domains shown, as the heavy chain of Sm3; light chain of Sm3 with this change; numbers count from the chain's first residue; source: Brevibacillus, culture supernatant (ammonium sulfate precipitate); not shown: 6xHis, C-terminal, kept; 6xHN, C-terminal, kept) VH: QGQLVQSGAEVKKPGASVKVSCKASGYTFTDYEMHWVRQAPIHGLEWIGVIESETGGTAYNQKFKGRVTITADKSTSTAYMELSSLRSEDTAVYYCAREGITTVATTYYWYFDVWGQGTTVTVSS VL: DVVMTQSPLSLPVTLGQPASISCYSSQSIVHSNGNTYLEWYLQKPGQSPQLLIYKVSNRFSGVPDRFSGSGSGTDFTLKISRVEAEDVGVYYCFQGSHVPLTFGQGTKLEIK" unit_abbreviation=s⁻¹ observed_measurement=0.0047

Look at this binder and give its reported koff. toripalimab Fab H.K63Y (Fab, V domains shown, heavy chain of Sm3 with this change; numbers count from the chain's first residue; as the light chain of Sm3; source: Brevibacillus, culture supernatant (ammonium sulfate precipitate); not shown: 6xHis, C-terminal, kept; 6xHN, C-terminal, kept) VH: QGQLVQSGAEVKKPGASVKVSCKASGYTFTDYEMHWVRQAPIHGLEWIGVIESETGGTAYNQYFKGRVTITADKSTSTAYMELSSLRSEDTAVYYCAREGITTVATTYYWYFDVWGQGTTVTVSS VL: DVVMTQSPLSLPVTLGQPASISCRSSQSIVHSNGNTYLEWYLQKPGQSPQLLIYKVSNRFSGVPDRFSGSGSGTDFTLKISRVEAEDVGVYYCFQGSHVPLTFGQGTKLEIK
0.00458
